- Tested on: DAPK3
- conditions: concentration: 1 μM, replicates: in singlicate; n = 1;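 also: KINOMEscan kinase panel screen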
Flag rule - %Inh less than 6% flags true; the remaining entries get false.

{"compound": "CCc1nc(-c2cccc(C)c2)c(-c2ccnc(NC(=O)c3ccccc3)c2)s1", "assignedLabel": "true"}
{"compound": "COc1ccc(Nc2nccc(N3CCC(NC(=O)c4cccc(NC(C)=O)c4)C3)n2)cc1 (centres unmarked)", "assignedLabel": "false"}
{"compound": "COc1ccc(-c2nc3n(c2-c2ccncc2)CCC3)cc1", "assignedLabel": "true"}
{"compound": "FC(F)(F)c1cc(Nc2nccc(-c3c(-c4ccc(Cl)cc4)nn4ncccc34)n2)ccc1Cl", "assignedLabel": "false"}
{"compound": "O=C(Nc1n[nH]c2nc(-c3ccco3)c(Br)cc12)c1ccc(CN2CCCC2)cc1.O=C(O)[C@H](O)[C@@H](O)C(=O)O", "assignedLabel": "true"}
{"compound": "FC(F)(F)c1ccc(-c2cc(-c3c[nH]nc3-c3ccccn3)ccn2)cc1", "assignedLabel": "false"}
{"compound": "Clc1cccc(-c2nc(Nc3ccncc3)c3ccccc3n2)c1", "assignedLabel": "false"}

---

The entries below are paired with their reported %Inh.
- Test system: PIP5K1A
- conditions: concentration: 1 μM, replicates: in singlicate; n = 1

{"compound": "CCCc1ccc(S(=O)(=O)NC2CCN(c3ccnc(Nc4ccc(OC)cc4)n3)C2)cc1 (stereo not drawn)", "%Inh": "52%"}
{"compound": "O=C(c1ccc(-c2cc(-c3c[nH]nc3-c3ccccn3)ccn2)cc1)N1CCCC1", "%Inh": "0%"}
{"compound": "Cc1cccc(-c2nc(Nc3ccc4[nH]nnc4c3)c3ccccc3n2)n1", "%Inh": "27%"}
{"compound": "Clc1cc(Nc2ncnc3cc[nH]c23)ccc1OCc1ccccn1", "%Inh": "30%"}
{"compound": "CSc1nn2c(=O)cc(N3CCOCC3)nc2n1Cc1cccc(Cl)c1Cl", "%Inh": "0%"}
{"compound": "COc1cc2c(Nc3cccc(NC(=O)c4ccccc4)c3)ncnc2cc1OCCCN1CCOCC1", "%Inh": "0%"}
{"compound": "O=C(NCCCN1CCCC1=O)c1cnc(NCc2cc(Cl)ccc2Cl)nc1NC1CCNCC1", "%Inh": "0%"}
{"compound": "Clc1ccc(-c2cc(-c3c[nH]nc3-c3ccccn3)ccn2)cc1", "%Inh": "16%"}
{"compound": "C[C@H]1CC[C@@H](C(=O)Nc2ccccc2)CN1c1cc(-c2ccc3c(N)n[nH]c3c2)nc(N)n1", "%Inh": "0%"}

---

- Test system: PIK3CD
- conditions: concentration: 1 μM, replicates: in singlicate; n = 1
The entries below are paired with their reported %Inh.
measuredProperty: %Inh (%)

{"compound": "O=C(c1ccc(-c2cc(-c3c[nH]nc3-c3ccccn3)ccn2)cc1)N1CCCC1", "measuredProperty": "%Inh", "unitAbbrev": "%", "endpointResult": 0}
{"compound": "CNc1nccc(-c2c(-c3ccc(F)cc3)ncn2CCCN2CCOCC2)n1", "measuredProperty": "%Inh", "unitAbbrev": "%", "endpointResult": 0}
{"compound": "COc1ccc(Nc2nccc(N3CCC(NC(=O)Nc4ccc5c(c4)OCO5)C3)n2)cc1 (stereo not shown)", "measuredProperty": "%Inh", "unitAbbrev": "%", "endpointResult": 5}
{"compound": "Cc1cc(N2CCC(NS(=O)(=O)c3ccc(F)cc3)CC2)nc(Nc2cccc(C#N)c2)n1.O=C(O)C(F)(F)F", "measuredProperty": "%Inh", "unitAbbrev": "%", "endpointResult": 0}

---

- System: RSK2(Kin.Dom.2-C-terminal)
- Construct: gene RPS6KA3
- conditions: concentration: 1 μM, replicates: in singlicate; n = 1

{"compound": "O=C(Nc1ccccc1F)NC1CCN(c2ccnc(Nc3ccc(F)cc3)n2)C1 (centres unmarked)", "systemTested": "RSK2(Kin.Dom.2-C-terminal)", "%Inh [%]": 28}
{"compound": "O=C(Nc1n[nH]c2nc(-c3ccco3)c(Br)cc12)c1ccc(CN2CCCC2)cc1.O=C(O)[C@H](O)[C@@H](O)C(=O)O", "systemTested": "RSK2(Kin.Dom.2-C-terminal)", "%Inh [%]": 0}
{"compound": "Cc1ccc(O)cc1Nc1cc(C(F)(F)F)nc2ccc(-c3ccncc3)cc12", "systemTested": "RSK2(Kin.Dom.2-C-terminal)", "%Inh [%]": 0}
{"compound": "CSc1nn2c(=O)cc(N3CCOCC3)nc2n1Cc1cccc(Cl)c1Cl", "systemTested": "RSK2(Kin.Dom.2-C-terminal)", "%Inh [%]": 0}
{"compound": "FC(F)(F)c1cc(Nc2nccc(-c3c(-c4ccc(Cl)cc4)nn4ncccc34)n2)ccc1Cl", "systemTested": "RSK2(Kin.Dom.2-C-terminal)", "%Inh [%]": 0}
{"compound": "COc1ccc(-c2oc3ncnc(N)c3c2-c2ccc(OC)cc2)cc1", "systemTested": "RSK2(Kin.Dom.2-C-terminal)", "%Inh [%]": 30}
{"compound": "CS(=O)(=O)CCNCc1nc(-c2ccc3ncnc(Nc4ccc(OCc5cccc(F)c5)c(Cl)c4)c3c2)cs1.Cl", "systemTested": "RSK2(Kin.Dom.2-C-terminal)", "%Inh [%]": 0}
{"compound": "Fc1cccc(COc2ccc(Nc3ncnc4sc(-c5ccc[nH]5)cc34)cc2Cl)c1", "systemTested": "RSK2(Kin.Dom.2-C-terminal)", "%Inh [%]": 0}
{"compound": "Cl.c1ccc(Cn2ccc3cc(Nc4ncnc5ccccc45)ccc32)cc1", "systemTested": "RSK2(Kin.Dom.2-C-terminal)", "%Inh [%]": 34}
{"compound": "C[C@@H]1CCN(C(=O)CO)C[C@@H]1N(C)c1ncnc2[nH]ccc12", "systemTested": "RSK2(Kin.Dom.2-C-terminal)", "%Inh [%]": 0}
{"compound": "FC(F)(F)c1ccc(-c2nn3ncccc3c2-c2ccnc(Nc3cccc(C(F)(F)F)c3)n2)cc1", "systemTested": "RSK2(Kin.Dom.2-C-terminal)", "%Inh [%]": 6}
{"compound": "COC(=O)c1c(-c2ccccc2)c2cc(Cl)ccc2c(=O)n1Cc1ccc(S(C)(=O)=O)cc1", "systemTested": "RSK2(Kin.Dom.2-C-terminal)", "%Inh [%]": 15}
{"compound": "COc1cc2ncnc(Nc3ccc(OCc4ccccc4Br)c(Cl)c3)c2cc1OC.Cl", "systemTested": "RSK2(Kin.Dom.2-C-terminal)", "%Inh [%]": 3}
{"compound": "Cl.Cn1ccc(-c2cccc(Nc3ccnc4cc(-c5nccs5)ccc34)c2)n1", "systemTested": "RSK2(Kin.Dom.2-C-terminal)", "%Inh [%]": 21}
{"compound": "CC(C)(C)c1ccc(-n2cnc3c(N)ncnc32)cc1", "systemTested": "RSK2(Kin.Dom.2-C-terminal)", "%Inh [%]": 28}
{"compound": "CCn1c(-c2ccncc2)nc2cnccc21", "systemTested": "RSK2(Kin.Dom.2-C-terminal)", "%Inh [%]": 34}
{"compound": "Cl.Fc1ccccc1COc1ccc(Nc2ncnc3ccc(-c4nnc(C(F)(F)F)o4)cc23)cc1Cl", "systemTested": "RSK2(Kin.Dom.2-C-terminal)", "%Inh [%]": 0}
{"compound": "COC(=O)c1cccc(NC(=O)NCCNc2ccnc(Nc3ccc(F)cc3)n2)c1", "systemTested": "RSK2(Kin.Dom.2-C-terminal)", "%Inh [%]": 0}
{"compound": "COc1ccc(Nc2nccc(N3CCC(NC(=O)Nc4ccc5c(c4)OCO5)C3)n2)cc1 (centres unmarked)", "systemTested": "RSK2(Kin.Dom.2-C-terminal)", "%Inh [%]": 0}
{"compound": "CC(=O)Nc1n[nH]c2ncc(-c3ccccc3)cc12", "systemTested": "RSK2(Kin.Dom.2-C-terminal)", "%Inh [%]": 0}

---

- Test system: YANK3
- Construct: gene STK32C
- conditions: concentration: 1 μM, replicates: in singlicate; n = 1
Flag rule - %Inh less than 2% flags True; the remaining entries get False.

{"molecule": "COc1ccc(Nc2nccc(N3CCC(NC(=O)c4cccc(NC(C)=O)c4)C3)n2)cc1 (centres unmarked)", "assignedLabel": "False"}
{"molecule": "Cl.c1ccc(Cn2ncc3cc(Nc4ncnc5ccccc45)ccc32)cc1", "assignedLabel": "True"}
{"molecule": "FC(F)(F)c1cc(Nc2nccc(-c3c(-c4ccc(Cl)cc4)nn4ncccc34)n2)ccc1Cl", "assignedLabel": "False"}
{"molecule": "Cn1ccc2ncnc(Oc3ccc(NC(=O)Nc4cccnc4)c(Cl)c3)c21", "assignedLabel": "False"}

---

- System: CAMKK1
- conditions: concentration: 1 μM, replicates: in singlicate; n = 1

{"compound": "CS(=O)(=O)CCNCc1nc(-c2ccc3ncnc(Nc4ccc(OCc5cccc(F)c5)c(Cl)c4)c3c2)cs1.Cl [GW583340]", "unitAbbrev": "%", "%Inh": 0}
{"compound": "OCCOCCn1ccc2ncnc(Nc3ccc(Oc4cccc(Cl)c4)c(Cl)c3)c21", "unitAbbrev": "%", "%Inh": 0}
{"compound": "Cl.Cn1ccc(-c2cccc(Nc3ccnc4cc(-c5nccs5)ccc34)c2)n1 [GW525701]", "unitAbbrev": "%", "%Inh": 25}
{"compound": "FC(F)(F)c1cc(Nc2nccc(-c3c(-c4ccc(Cl)cc4)nn4ncccc34)n2)ccc1Cl [GW829351]", "unitAbbrev": "%", "%Inh": 2}
{"compound": "O=C(NCCCN1CCCC1=O)c1cnc(NCc2cc(Cl)ccc2Cl)nc1NC1CCNCC1", "unitAbbrev": "%", "%Inh": 4}
{"compound": "CCn1c(-c2ccncc2)nc2cnccc21 [SB-735216]", "unitAbbrev": "%", "%Inh": 0}
{"compound": "Cn1ccc2ncnc(Oc3ccc(NC(=O)Nc4cccnc4)c(Cl)c3)c21", "unitAbbrev": "%", "%Inh": 20}
{"compound": "CC(C)N1CCC(n2cnc(-c3ccc(F)cc3)c2-c2ccnc(N)n2)CC1 [SB-223132]", "unitAbbrev": "%", "%Inh": 21}
{"compound": "Cc1ccc(C)c(NC(=O)NCCNc2ccnc(Nc3ccc(F)cc3)n2)c1 [GSK1379878]", "unitAbbrev": "%", "%Inh": 0}
{"compound": "Cc1cc(N2CCC(NS(=O)(=O)c3ccc(F)cc3)CC2)nc(Nc2cccc(C#N)c2)n1.O=C(O)C(F)(F)F [GSK1653537]", "unitAbbrev": "%", "%Inh": 5}
{"compound": "CNc1nccc(-c2c(-c3ccc(F)cc3)ncn2C2CCN(C)CC2)n1 [SB-222903]", "unitAbbrev": "%", "%Inh": 0}
{"compound": "O=C(Nc1ccccc1F)NC1CCN(c2ccnc(Nc3ccc(F)cc3)n2)C1 (centres unmarked) [GSK1379722]", "unitAbbrev": "%", "%Inh": 0}
{"compound": "O=C(c1ccc(-c2cc(-c3c[nH]nc3-c3ccccn3)ccn2)cc1)N1CCCC1 [GW792479]", "unitAbbrev": "%", "%Inh": 23}
{"compound": "Nc1nccc2scc(-c3ccc4c(c3)CCN4C(=O)Cc3cc(F)ccc3F)c12 [GSK2587663]", "unitAbbrev": "%", "%Inh": 5}
{"compound": "Fc1cccc(COc2ccc(Nc3ncnc4cc[nH]c34)cc2Cl)c1", "unitAbbrev": "%", "%Inh": 11}
{"compound": "CN1c2ccc(-c3ccc(C(=O)NCCO)cc3)cc2-c2[nH]ncc2S1(=O)=O", "unitAbbrev": "%", "%Inh": 22}
{"compound": "FC(F)(F)c1ccc(-c2cc(-c3c[nH]nc3-c3ccccn3)ccn2)cc1 [GW599550]", "unitAbbrev": "%", "%Inh": 11}
